study.target: IRAK4 (Homo sapiens)
Sequence (Q9NWZ3 whole entry): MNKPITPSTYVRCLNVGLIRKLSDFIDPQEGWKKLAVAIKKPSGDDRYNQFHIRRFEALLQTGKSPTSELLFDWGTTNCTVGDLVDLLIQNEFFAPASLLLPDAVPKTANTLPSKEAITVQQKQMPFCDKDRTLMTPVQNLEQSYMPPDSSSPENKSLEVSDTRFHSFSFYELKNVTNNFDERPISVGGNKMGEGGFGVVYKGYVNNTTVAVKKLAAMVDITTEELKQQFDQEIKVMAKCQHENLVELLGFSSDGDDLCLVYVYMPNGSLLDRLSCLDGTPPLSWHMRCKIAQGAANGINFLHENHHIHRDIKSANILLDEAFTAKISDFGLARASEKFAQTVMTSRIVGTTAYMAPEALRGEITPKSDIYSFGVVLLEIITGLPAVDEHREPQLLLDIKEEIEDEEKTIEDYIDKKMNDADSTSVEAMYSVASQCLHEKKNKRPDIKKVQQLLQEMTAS
test.protocol: 2-hour 1 mM ATP IRAK4 Biochemical assay (as above, but with 100 pM IRAK4 and 1 mM ATP)
assay.context: IRAK4 MSD BIOCHEMICAL (1 mM ATP) IC50 (μM), 100 pM IRAK4, 2 hours
Each entry below carries its recorded IC50.

compound: CCOc1cc2nc(C(F)F)cn2cc1NC(=O)c1cccc(C(F)(F)F)n1 [Example 57]
study.target: IRAK4 (Homo sapiens)
IC50: 0.008 µM

compound: O=C(Nc1cn2cc(C3CCOCC3)nc2cc1OCC1CCCOC1)c1cccc(C(F)F)n1 (stereo not shown) [Example 193]
study.target: IRAK4 (Homo sapiens)
IC50: 0.001 µM

compound: CC(C#N)Oc1cc2nc(C3CCOCC3)cn2cc1NC(=O)c1cccc(C(F)F)n1 (stereo not shown) [Example 173]
study.target: IRAK4 (Homo sapiens)
IC50: 0.001 µM

compound: CCOc1cc2nc(C3CCOCC3)cn2cc1NC(=O)c1ccn2c1CCCC2 [Example 222]
study.target: IRAK4 (Homo sapiens)
IC50: 0.041 µM

Data credit: patent US20220089592A1
